Molecular target: Cyclophilin D (CyPD) (Homo sapiens)
Test: Cyclophilin D PPIase inhibition assay
Endpoint: EC50

For the compound "C/C=C/C[C@@H](C)[C@@H](O)[C@H]1C(=O)N[C@@H](CC)C(=O)N(C)[C@H](SCCN(C)C)C(=O)N(C)[C@@H](CC(C)(C)O)C(=O)N[C@@H](C(C)C)C(=O)N(C)[C@@H](CC(C)C)C(=O)N[C@@H](C)C(=O)N[C@H](C)C(=O)N(C)[C@@H](CC(C)C)C(=O)N(C)[C@@H](CC(C)C)C(=O)N(C)[C@@H](C(C)C)C(=O)N1C" , what EC50 is on record?
4 to 10 nM

====

Hi there, I'd appreciate the recorded EC50 for every entry that follows.
Biological target: Cyclophilin D (CyPD) (Homo sapiens, UniProt P30405)
Sequence (P30405 30-207, species assumed): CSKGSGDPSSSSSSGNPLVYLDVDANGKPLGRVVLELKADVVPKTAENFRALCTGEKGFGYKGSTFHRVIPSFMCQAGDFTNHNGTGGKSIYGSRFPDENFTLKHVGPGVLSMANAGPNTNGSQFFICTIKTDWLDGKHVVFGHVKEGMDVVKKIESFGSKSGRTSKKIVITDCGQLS
Test: Cyclophilin D PPIase inhibition assay
Non-standard residues stand in square brackets, D forms with d. Residues, ends and D or L forms follow the SMILES beside them. *: point of attachment. NMeThr(4R-Me,4-(CH2)6NHAc) = CN[C@H](C(=O)O)[C@H](O)[C@H](C)CCCCCCNC(C)=O; NMeL = CN[C@@H](CC(C)C)C(=O)O; NMeV = CN[C@H](C(=O)O)C(C)C; dNMeC = CN[C@H](CS)C(=O)O; Abu = CC[C@H](N)C(=O)O; Butyl(4-OH) = OCCCC*

// lookup EC50 for "C/C=C/C[C@@H](C)[C@@H](O)[C@H]1C(=O)N[C@@H](CC)C(=O)N(C)[C@H](C)C(=O)N(CC)[C@@H](C(C)C)C(=O)N[C@@H](C(C)C)C(=O)N(C)[C@@H](CC(C)C)C(=O)N[C@@H](C)C(=O)N[C@H](C)C(=O)N(C)[C@@H](CC(C)C)C(=O)N(C)[C@@H](CC(C)C)C(=O)N(C)[C@@H](C(C)C)C(=O)N1C"
< 4 nM

Would you mind doing "C/C=C/C[C@@H](C)[C@@H](O)[C@H]1C(=O)N[C@@H](CC)C(=O)N(C)[C@H](CSCCCCO)C(=O)N(C)[C@@H](CC(C)(C)O)C(=O)N[C@@H](C(C)C)C(=O)N(C)[C@@H](CC(C)C)C(=O)N[C@@H](C)C(=O)N[C@H](C)C(=O)N(C)[C@@H](CC(C)C)C(=O)N(C)[C@@H](CC(C)C)C(=O)N(C)[C@@H](C(C)C)C(=O)N1C" as well?
< 4 nM

Try CC[C@@H]1NC(=O)[C@H]([C@H](O)[C@H](C)CCCCCCNC(C)=O)N(C)C(=O)[C@H](C(C)C)N(C)C(=O)[C@H](CC(C)C)N(C)C(=O)[C@H](CC(C)C)N(C)C(=O)[C@@H](C)NC(=O)[C@H](C)NC(=O)[C@H](CC(C)C)N(C)C(=O)[C@H](C(C)C)NC(=O)[C@H](CC(C)C)N(C)C(=O)[C@@H](CSCCCCO)N(C)C1=O (cyclo(A[dA][NMeL][NMeL][NMeV][NMeThr(4R-Me,4-(CH2)6NHAc)][Abu][dNMeC](Butyl(4-OH))[NMeL]V[NMeL])) next.
< 4 nM

====

System: HCV replicon in cell line ET (luc-ubi-neo/ET), Huh7 human hepatoma cell line
Assay: HCV subgenomic replicon assay (luciferase end point)
Type: cell-based
Conditions: Hepatitis C virus, Huh-7, read-out: Antiviral activity
pIC50: −log10 of the molar value. Non-standard residues stand in square brackets, D forms with d. Residues, ends and D or L forms follow the SMILES beside them. *: point of attachment. NMeThr(4R-Me,4-(CH2)6NHAc) = CN[C@H](C(=O)O)[C@H](O)[C@H](C)CCCCCCNC(C)=O; NMeL = CN[C@@H](CC(C)C)C(=O)O; NMeV = CN[C@H](C(=O)O)C(C)C; dNMeC = CN[C@H](CS)C(=O)O; dNMeS = CN[C@H](CO)C(=O)O; dNMeA = CN[C@H](C)C(=O)O; Abu = CC[C@H](N)C(=O)O; Butyl(4-OH) = OCCCC*
I'd be grateful if you could share measured pIC50 for these entries.

Which pIC50 is reported with HCV replicon in cell line ET (luc-ubi-neo/ET), Huh7 human hepatoma cell line for this entry: "C/C=C/C[C@@H](C)[C@@H](O)[C@H]1C(=O)N[C@@H](CC)C(=O)N(C)[C@H](C)C(=O)N(CC)[C@@H](C(C)C)C(=O)N[C@@H](C(C)C)C(=O)N(C)[C@@H](CC(C)C)C(=O)N[C@@H](C)C(=O)N[C@H](C)C(=O)N(C)[C@@H](CC(C)C)C(=O)N(C)[C@@H](CC(C)C)C(=O)N(C)[C@@H](C(C)C)C(=O)N1C" ?
> 7.46

// next record "CC[C@@H]1NC(=O)[C@H]([C@H](O)[C@H](C)CCCCCCNC(C)=O)N(C)C(=O)[C@H](C(C)C)N(C)C(=O)[C@H](CC(C)C)N(C)C(=O)[C@H](CC(C)C)N(C)C(=O)[C@@H](C)NC(=O)[C@H](C)NC(=O)[C@H](CC(C)C)N(C)C(=O)[C@H](C(C)C)NC(=O)[C@H](CC(C)C)N(C)C(=O)CN(C)C1=O"
> 7.46

Follow-up item: CC[C@@H]1NC(=O)[C@H]([C@H](O)[C@H](C)CCCCCCNC(C)=O)N(C)C(=O)[C@H](C(C)C)N(C)C(=O)[C@H](CC(C)C)N(C)C(=O)[C@H](CC(C)C)N(C)C(=O)[C@@H](C)NC(=O)[C@H](C)NC(=O)[C@H](CC(C)C)N(C)C(=O)[C@H](C(C)C)NC(=O)[C@H](CC(C)C)N(C)C(=O)[C@@H](C)N(C)C1=O (cyclo(A[dA][NMeL][NMeL][NMeV][NMeThr(4R-Me,4-(CH2)6NHAc)][Abu][dNMeA][NMeL]V[NMeL]))
> 7.46

Subsequent entry: "CC[C@@H]1NC(=O)[C@H]([C@H](O)[C@H](C)CCCCCCNC(C)=O)N(C)C(=O)[C@H](C(C)C)N(C)C(=O)[C@H](CC(C)C)N(C)C(=O)[C@H](CC(C)C)N(C)C(=O)[C@@H](C)NC(=O)[C@H](C)NC(=O)[C@H](CC(C)C)N(C)C(=O)[C@H](C(C)C)NC(=O)[C@H](CC(C)(C)O)N(C)C(=O)CN(C)C1=O"
> 7.46

Moving on to the next compound: "C/C=C/C[C@@H](C)[C@@H](O)[C@H]1C(=O)N[C@@H](CC)C(=O)N(C)[C@H](SCCN(C)C)C(=O)N(C)[C@@H](CC(C)(C)O)C(=O)N[C@@H](C(C)C)C(=O)N(C)[C@@H](CC(C)C)C(=O)N[C@@H](C)C(=O)N[C@H](C)C(=O)N(C)[C@@H](CC(C)C)C(=O)N(C)[C@@H](CC(C)C)C(=O)N(C)[C@@H](C(C)C)C(=O)N1C"
7.05 to 7.46

Follow-up item: CC[C@@H]1NC(=O)[C@H]([C@H](O)[C@H](C)CCCCCCNC(C)=O)N(C)C(=O)[C@H](C(C)C)N(C)C(=O)[C@H](CC(C)C)N(C)C(=O)[C@H](CC(C)C)N(C)C(=O)[C@@H](C)NC(=O)[C@H](C)NC(=O)[C@H](CC(C)C)N(C)C(=O)[C@H](C(C)C)NC(=O)[C@H](CC(C)C)N(C)C(=O)[C@@H](CSCCCCO)N(C)C1=O (cyclo(A[dA][NMeL][NMeL][NMeV][NMeThr(4R-Me,4-(CH2)6NHAc)][Abu][dNMeC](Butyl(4-OH))[NMeL]V[NMeL]))
> 7.46

Request: CC[C@@H]1NC(=O)[C@H]([C@H](O)[C@H](C)CCCCCCNC(C)=O)N(C)C(=O)[C@H](C(C)C)N(C)C(=O)[C@H](CC(C)C)N(C)C(=O)[C@H](CC(C)C)N(C)C(=O)[C@@H](C)NC(=O)[C@H](C)NC(=O)[C@H](CC(C)C)N(C)C(=O)[C@H](C(C)C)NC(=O)[C@H](CC(C)C)N(C)C(=O)[C@@H](CO)N(C)C1=O (cyclo(A[dA][NMeL][NMeL][NMeV][NMeThr(4R-Me,4-(CH2)6NHAc)][Abu][dNMeS][NMeL]V[NMeL]))
> 7.46

Note, next up: C/C=C/C[C@@H](C)[C@@H](O)[C@H]1C(=O)N[C@@H](CC)C(=O)N(C)CC(=O)N(C)[C@@H]([C@@H](C)CC)C(=O)N[C@@H](C(C)C)C(=O)N(C)[C@@H](CC(C)C)C(=O)N[C@@H](C)C(=O)N[C@H](C)C(=O)N(C)[C@@H](CC(C)C)C(=O)N(C)[C@@H](CC(C)C)C(=O)N(C)[C@@H](C(C)C)C(=O)N1C [[N-MeIle]-4-cyclosporin (SDZ-NIM-811), N-MeIle-4-Cyclosporin]
6.60 to 7.05
